# study-system: TRβ (Homo sapiens, UniProt P10828)
# Construct: expressed in transfected cells; host or cells: HEK293
# Sequence (P10828 217-461 limits assumed): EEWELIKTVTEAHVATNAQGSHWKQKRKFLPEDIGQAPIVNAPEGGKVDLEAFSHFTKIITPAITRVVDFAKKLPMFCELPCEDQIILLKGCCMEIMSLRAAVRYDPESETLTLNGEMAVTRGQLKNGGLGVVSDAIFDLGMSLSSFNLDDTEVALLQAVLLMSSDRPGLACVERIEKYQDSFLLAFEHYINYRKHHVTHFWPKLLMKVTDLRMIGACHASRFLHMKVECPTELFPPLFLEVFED
# experimental-details: TR reporter-gene assay (Gal4 DBD hybrid, luciferase), TRβ
# Format: cell-based
# condition-summary: HEK293-derived reporter cells, 24 hr treatment; read-out: TRβ EC50
// EC50 lookup, one value per entry

(Q) Recall and state the measured EC50 for CC(c1ccc(F)cc1)c1c(O)ccc(Cc2c(Cl)cc(NC(=O)CC(=O)O)cc2Cl)c1F (stereo not drawn) .
(A) 10 to 100 nM

(Q) Output EC50 of CON(C)C(=O)Cc1cc(Cl)c(Cc2ccc(O)c(C(C)C)c2F)c(Cl)c1
(A) > 1000 nM

Next item in the queue.
(Q) Please report the measured EC50 for CONC(=O)CCc1cc(Cl)c(Cc2ccc(O)c(C(C)C)c2F)c(Cl)c1
(A) 10 to 100 nM

* * *

# study-system: TRα (Homo sapiens, UniProt P10827)
# Construct: expressed in transfected cells; host or cells: HEK293
# experimental-details: TR reporter-gene assay (Gal4 DBD hybrid, luciferase), TRα
# Format: cell-based
# condition-summary: HEK293-derived reporter cells, 24 hr treatment; read-out: TRα EC50
# Method: Compounds were tested for thyroid-hormone receptor activity using TR reporter-gene assays. Reporter cells used in the assays express a TR-receptor hybrid (either TRα or TRβ) in which the native N-terminal DNA binding domain (DBD) has been replaced with that of the yeast Gal4 DBD. […] Step 4: At the 24 h assay endpoint, treatment media were discarded and 100 µl/well of luciferase detection reagent was added. Relative luminometer units (RLUs) were quantified from each assay well.
pEC50: −log10 of the molar value.
measurement-name: pEC50

Reference set, count: 3
(Q) Return the recorded pEC50 value; entry: Cc1cc(SCC(=O)O)cc(Cl)c1Cc1ccc(O)c(C(C)C)c1 [Compound 123]
(A) 6.00 to 7.00

(Q) Please give the documented pEC50 of CC(C)c1cc(Cc2c(Cl)cc(CCC(=O)O)c(F)c2Cl)ccc1O [Compound 65]
(A) 7.00 to 8.00

(Q) Entry CCOC(=O)/C(=C\c1cc(Cl)c(Cc2ccc(O)c(C(C)C)c2)c(Cl)c1)C(=O)O [Compound 90] needs its pEC50 filled in; supply it.
(A) < 6.00

Further cases:
(Q) Give pEC50 for the following compound: Cc1cc(NCC(=O)O)c(F)c(Cl)c1Cc1ccc(O)c(C(C)C)c1 [Compound 222]
(A) 7.00 to 8.00

(Q) Identify pEC50 associated with the compound Cc1cc(/C=C/C(=O)O)cc(Cl)c1Cc1ccc(O)c(C(C)C)c1F [Compound 250]
(A) 7.00 to 8.00

(Q) Query pEC50 for CC(C)c1c(O)ccc(Cc2c(Cl)cc(CC(N)C(=O)O)cc2Cl)c1F (stereo not shown) [Compound 207]
(A) < 6.00

* * *

# study-system: TRβ (Homo sapiens)
# Construct: expressed in transfected cells; host or cells: HEK293
# experimental-details: TR reporter-gene assay (Gal4 DBD hybrid, luciferase), TRβ
# Type: cell-based
# condition-summary: class symbols
measurement-name: T3-SI (selectivity index, EC50 (TRα)/EC50 (TRβ))

Example entries begin here.
(Q) Return T3-SI (selectivity index, EC50 (TRα)/EC50 (TRβ)) (reported value) for this compound: CC(c1ccc(F)cc1)c1c(O)ccc(Cc2c(Cl)cc(NCC(=O)O)cc2Cl)c1F (centres unmarked)
(A) ++ (3× < T3-SI ≤ 30×)

(Q) Kindly indicate its recorded T3-SI (selectivity index, EC50 (TRα)/EC50 (TRβ)). Item: CC(C)c1cc(Cc2c(Cl)cc(NCCC(=O)O)cc2Cl)ccc1O
(A) ++ (3× < T3-SI ≤ 30×)

(Q) Dear colleague, please send me the reported T3-SI (selectivity index, EC50 (TRα)/EC50 (TRβ)) for CC(C)c1cc(Cc2c(Cl)cc(/C=C/C(=O)O)cc2Cl)ccc1O when you can.
(A) + (T3-SI ≤ 3×)

(Q) Query T3-SI (selectivity index, EC50 (TRα)/EC50 (TRβ)) for CC(C)c1cc(Cc2c(Cl)cc(N(C)CC(=O)O)cc2Cl)ccc1O
(A) + (T3-SI ≤ 3×)

(Q) Determine its reported T3-SI (selectivity index, EC50 (TRα)/EC50 (TRβ)): CC(C)c1cc(Cc2c(Cl)cc(SCC(=O)O)c(F)c2Cl)ccc1O
(A) ++ (3× < T3-SI ≤ 30×)

More entries:
(Q) State its T3-SI (selectivity index, EC50 (TRα)/EC50 (TRβ)): CC(C)c1cc(Cc2c(Cl)cc(/C=C\C(=O)O)cc2Cl)ccc1O
(A) + (T3-SI ≤ 3×)

(Q) State its T3-SI (selectivity index, EC50 (TRα)/EC50 (TRβ)): CC(C)c1cc(Cc2c(Cl)cc(CS(=O)(=O)CC(=O)O)cc2Cl)ccc1O
(A) ++ (3× < T3-SI ≤ 30×)

(Q) Quickly give me recorded T3-SI (selectivity index, EC50 (TRα)/EC50 (TRβ)) for CC(C)c1cc(Cc2c(Cl)cc(COCC(=O)O)cc2Cl)ccc1O
(A) ++ (3× < T3-SI ≤ 30×)

(Q) Provide only the value of recorded T3-SI (selectivity index, EC50 (TRα)/EC50 (TRβ)) for C[Si](C)(C)c1c(O)ccc(Cc2c(Cl)cc(CC(=O)O)c(F)c2Cl)c1F
(A) ++ (3× < T3-SI ≤ 30×)

(Q) Identify the reported T3-SI (selectivity index, EC50 (TRα)/EC50 (TRβ)) for the following entry. Cc1c(F)c(CSCC(=O)O)cc(Cl)c1Cc1ccc(O)c(C(C)C)c1
(A) ++ (3× < T3-SI ≤ 30×)

(Q) In one line, give reported T3-SI (selectivity index, EC50 (TRα)/EC50 (TRβ)) of the entry CC(C)c1cc(Cc2c(Cl)cc(OC(F)C(=O)O)cc2Cl)ccc1O (centres unmarked) .
(A) ++ (3× < T3-SI ≤ 30×)

* * *

# study-system: TRα (Homo sapiens, UniProt P10827)
# Construct: expressed in transfected cells; host or cells: HEK293
# Sequence (P10827 1-410 isoform P10827-2): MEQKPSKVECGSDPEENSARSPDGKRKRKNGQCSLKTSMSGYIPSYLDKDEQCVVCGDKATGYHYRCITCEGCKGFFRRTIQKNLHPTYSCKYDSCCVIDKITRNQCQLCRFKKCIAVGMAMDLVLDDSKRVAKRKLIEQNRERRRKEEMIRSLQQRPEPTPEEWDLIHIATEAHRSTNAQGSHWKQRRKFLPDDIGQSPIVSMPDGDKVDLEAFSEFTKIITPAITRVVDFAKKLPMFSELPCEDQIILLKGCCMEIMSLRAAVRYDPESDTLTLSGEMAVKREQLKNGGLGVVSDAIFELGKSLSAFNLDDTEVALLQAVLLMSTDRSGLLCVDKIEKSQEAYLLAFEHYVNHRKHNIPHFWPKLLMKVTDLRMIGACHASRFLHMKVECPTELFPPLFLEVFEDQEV
# experimental-details: TR reporter-gene assay (Gal4 DBD hybrid, luciferase), TRα
# Assay type: cell-based
# condition-summary: HEK293-derived reporter cells, 24 hr treatment; read-out: TRα EC50
pEC50: −log10 of the molar value.
measurement-name: pEC50

(Q) Given the molecule CC(C)c1cc(Cc2c(Cl)cc(C[S+]([O-])CC(=O)O)cc2Cl)ccc1O (stereo not drawn) [Compound 96] , write its reported pEC50.
(A) < 6.00

***
(Q) Input CC(C)c1c(O)ccc(Cc2c(Cl)cc(CC(=O)O)c(F)c2Cl)c1F [Compound 69] , output reported pEC50.
(A) 7.00 to 8.00

(Q) For the molecule Cc1cc(CS(=O)(=O)CC(=O)O)cc(Cl)c1Cc1ccc(O)c(C(C)C)c1 [Compound 245] , give its measured pEC50 value.
(A) < 6.00

(Q) In one line, give reported pEC50 of the entry Cc1c(F)c(NCC(=O)O)cc(Cl)c1Cc1ccc(O)c(C(C)C)c1F [Compound 133] .
(A) > 8.00

(Q) Provide only the value of recorded pEC50 for CC(C)c1c(O)ccc(Cc2c(Cl)cc(N(C)CC(=O)O)cc2Cl)c1F [Compound 140]
(A) < 6.00

(Q) Give recorded pEC50. CC(c1ccc(F)cc1)c1cc(Cc2c(Cl)cc(CC(=O)O)cc2Cl)ccc1O (stereo not drawn) [Compound 9]
(A) 7.00 to 8.00

(Q) Please give measured pEC50 of the following entry: CC(C)c1cc(Cc2c(Cl)cc(OC(F)(F)C(=O)O)cc2Cl)ccc1O [Compound 82]
(A) < 6.00

(Q) Look up and report measured pEC50 for this entry: CC(C)c1cc(Cc2c(Cl)cc(NCC(=O)O)c(F)c2Cl)ccc1O [Compound 75]
(A) 7.00 to 8.00

(Q) Please supply the value of reported pEC50 for the item C/C(=C\c1cc(Cl)c(Cc2ccc(O)c(C(C)C)c2)c(Cl)c1)C(=O)O [Compound 102]
(A) 6.00 to 7.00

(Q) State its pEC50 for this molecule: Cc1cc(SCC(=O)O)c(F)c(Cl)c1Cc1ccc(O)c(C(C)C)c1 [Compound 225]
(A) 6.00 to 7.00

(Q) Please give the documented pEC50 of Cc1cc(NCC(=O)O)cc(Cl)c1Cc1ccc(O)c(C(C)C)c1 [Compound 125]
(A) 7.00 to 8.00

(Q) Dear colleague, please send me the reported pEC50 for CC(C)c1cc(Cc2c(Cl)cc(C=C(C(=O)O)C(=O)O)cc2Cl)ccc1O [Compound 108] when you can.
(A) 6.00 to 7.00

(Q) Identify measured pEC50 associated with CC(C)c1cc(Cc2c(Cl)cc(OCCCCC(=O)O)cc2Cl)ccc1O [Compound 26]
(A) 6.00 to 7.00

Source listed as patent US12528761B2.
